# assay-remarks: Solubility and impurities of API with solubility enhancing excipients in citrate or phosphate buffer pH 4.5
# Format: physicochemical
# condition-description: citrate buffer, pH 4.5, aqueous with cosolvent or surfactant or cyclodextrin, thermodynamic from solid, citrate buffer pH 4.5; 1 wt.-% Tween ® 80; 1 mg API in 100 g buffer
# Method: The solubility of the API was assessed in different buffers together with different excipients. Batches containing different amounts of non-micronized API (i.e. 1 mg, 4 mg, 10 mg or 15 mg) in 100 g buffer were manufactured in order to have saturated solutions. Two different buffers were chosen (citrate buffer and phosphate buffer). […]
recorded-endpoint: solubility (µg/mL)
# output: bare number, implied unit µg/mL

Given item CN(C)[C@]1(c2cccc(F)c2)CC[C@]2(CC1)c1[nH]c3ccccc3c1CCN2C(=O)/C=C/c1ccccc1 , the value recorded as its solubility is 7.93

---

# assay-remarks: Solubility and impurities of API with solubility enhancing excipients in citrate or phosphate buffer pH 4.5
# Format: physicochemical
# condition-description: citrate buffer, pH 4.5, aqueous with cosolvent or surfactant or cyclodextrin, thermodynamic from solid, citrate buffer pH 4.5; 1 wt.-% Cremophor ® RH 40; 1 mg API in 100 g buffer
recorded-endpoint: solubility (µg/mL)
# output: bare number, implied unit µg/mL

Given item CN(C)[C@]1(c2cccc(F)c2)CC[C@]2(CC1)c1[nH]c3ccccc3c1CCN2C(=O)/C=C/c1ccccc1 , the value recorded as its solubility is 7.18

---

# assay-remarks: Solubility and impurities of API with solubility enhancing excipients in citrate or phosphate buffer pH 4.5
# Assay type: physicochemical
# condition-description: phosphate buffer, pH 4.5, aqueous with cosolvent or surfactant or cyclodextrin, thermodynamic from solid, phosphate buffer pH 4.5; 1 wt.-% Cremophor ® RH 40; 1 mg API in 100 g buffer
recorded-endpoint: solubility (µg/mL)
# output: bare number, implied unit µg/mL

Given item CN(C)[C@]1(c2cccc(F)c2)CC[C@]2(CC1)c1[nH]c3ccccc3c1CCN2C(=O)/C=C/c1ccccc1 , the value recorded as its solubility is 7.67

---

# assay-remarks: Solubility and impurities of API with solubility enhancing excipients in citrate or phosphate buffer pH 4.5
# Assay type: physicochemical
# condition-description: phosphate buffer, pH 4.5, aqueous with cosolvent or surfactant or cyclodextrin, thermodynamic from solid, phosphate buffer pH 4.5; 1 wt.-% Solutol ® HS 15; 1 mg API in 100 g buffer
recorded-endpoint: solubility (µg/mL)
# output: bare number, implied unit µg/mL

Given item CN(C)[C@]1(c2cccc(F)c2)CC[C@]2(CC1)c1[nH]c3ccccc3c1CCN2C(=O)/C=C/c1ccccc1 [API] , the value recorded as its solubility is 6.71

---

# assay-remarks: Solubility and impurities of API with solubility enhancing excipients in citrate or phosphate buffer pH 4.5
# Type: physicochemical
# condition-description: phosphate buffer, pH 4.5, aqueous with cosolvent or surfactant or cyclodextrin, thermodynamic from solid, phosphate buffer pH 4.5; 1 wt.-% Tween ® 80; 1 mg API in 100 g buffer
recorded-endpoint: solubility (µg/mL)
# output: bare number, implied unit µg/mL

Given item CN(C)[C@]1(c2cccc(F)c2)CC[C@]2(CC1)c1[nH]c3ccccc3c1CCN2C(=O)/C=C/c1ccccc1 , the value recorded as its solubility is 8.91

---

# assay-remarks: Solubility and impurities of API with solubility enhancing excipients in citrate or phosphate buffer pH 4.5
# Format: physicochemical
# condition-description: phosphate buffer, pH 4.5, aqueous with cosolvent or surfactant or cyclodextrin, thermodynamic from solid, phosphate buffer pH 4.5; 1 wt.-% vitamin E TPGS; 10 mg API in 100 g buffer
recorded-endpoint: solubility (µg/mL)
# output: bare number, implied unit µg/mL

Given item CN(C)[C@]1(c2cccc(F)c2)CC[C@]2(CC1)c1[nH]c3ccccc3c1CCN2C(=O)/C=C/c1ccccc1 , the value recorded as its solubility is 256

---

# assay-remarks: Solubility and impurities of API with solubility enhancing excipients in citrate or phosphate buffer pH 4.5
# Assay type: physicochemical
# condition-description: phosphate buffer, pH 4.5, aqueous with cosolvent or surfactant or cyclodextrin, thermodynamic from solid, phosphate buffer pH 4.5; 1 wt.-% Labrasol ®; 1 mg API in 100 g buffer
recorded-endpoint: solubility (mg/mL)
# output: bare number, implied unit mg/mL

Given item CN(C)[C@]1(c2cccc(F)c2)CC[C@]2(CC1)c1[nH]c3ccccc3c1CCN2C(=O)/C=C/c1ccccc1 [API] , the value recorded as its solubility is 0.0458

---

# assay-remarks: Solubility and impurities of API with solubility enhancing excipients in citrate or phosphate buffer pH 4.5
# Assay type: physicochemical
# condition-description: citrate buffer, pH 4.5, aqueous with cosolvent or surfactant or cyclodextrin, thermodynamic from solid, citrate buffer pH 4.5; 1 wt.-% SLS; 10 mg API in 100 g buffer
recorded-endpoint: solubility (µg/mL)
# output: bare number, implied unit µg/mL

Given item CN(C)[C@]1(c2cccc(F)c2)CC[C@]2(CC1)c1[nH]c3ccccc3c1CCN2C(=O)/C=C/c1ccccc1 , the value recorded as its solubility is 8.19

---

# assay-remarks: Solubility and impurities of API with solubility enhancing excipients in citrate or phosphate buffer pH 4.5
# Format: physicochemical
# condition-description: phosphate buffer, pH 4.5, aqueous buffer, thermodynamic from solid, phosphate buffer pH 4.5; 1 wt.-% PEG 400; 1 mg API in 100 g buffer
recorded-endpoint: solubility (µg/mL)
# output: bare number, implied unit µg/mL

Given item CN(C)[C@]1(c2cccc(F)c2)CC[C@]2(CC1)c1[nH]c3ccccc3c1CCN2C(=O)/C=C/c1ccccc1 , the value recorded as its solubility is 0.83
